Source of measurements: patent US11066414B2

target_or_test_system: Human Cot (Homo sapiens (Human), UniProt P41279)
Sequence (P41279 30-397): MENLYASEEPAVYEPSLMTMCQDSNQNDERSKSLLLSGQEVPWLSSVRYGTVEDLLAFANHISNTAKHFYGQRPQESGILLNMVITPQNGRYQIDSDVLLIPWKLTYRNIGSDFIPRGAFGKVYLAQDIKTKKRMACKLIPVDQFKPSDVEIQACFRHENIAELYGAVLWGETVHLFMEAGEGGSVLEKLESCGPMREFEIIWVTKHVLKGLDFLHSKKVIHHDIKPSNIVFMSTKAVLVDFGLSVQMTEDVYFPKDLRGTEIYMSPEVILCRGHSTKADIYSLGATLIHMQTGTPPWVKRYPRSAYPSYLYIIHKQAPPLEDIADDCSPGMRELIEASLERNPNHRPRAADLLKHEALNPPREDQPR
protocol_notes: High Throughput Cot Biochemical Assay
cond: IC50 HTRF, Cot HTRF (TR-FRET) biochemical assay
pIC50: −log10 of the molar value.
Mark yes for reported pIC50 of 8 or greater; mark no for anything smaller.

INSERT INTO measurements (compound, label_class) VALUES
  ('CN1Cc2c(cccc2[C@H](Nc2cc(Cl)c3ncc(C#N)c(NCC(C)(C)C)c3c2)c2cn(C3(C(F)F)CC3)nn2)C1=O', 'yes'),
  ('Cc1nc(F)ccc1[C@H](Nc1cc(C#N)c2ncc(C#N)c(NCC(C)(C)C)c2c1)c1cn(C2(C#N)CC2)nn1', 'yes'),
  ('N#Cc1cnc2c(Cl)cc(N[C@H](c3cn(C4CCNCC4)nn3)c3ccc(Cl)s3)cc2c1Nc1ccc(F)c(Cl)c1', 'no');

Does the reported pIC50 for Cc1nc(F)ccc1[C@H](Nc1cc(Cl)c2ncc(C#N)c(NCC(C)(C)C)c2c1)c1cn(C(C)(C)C2CC2)nn1 fall at or above the 8 mark?
yes

Input Cc1nc(F)ccc1[C@H](Nc1cc(F)c2ncc(C#N)c(NCC(C)(C)C)c2c1)c1cn(C2(C(N)=O)CCC2)nn1
yes

Then Cc1nc(F)ccc1[C@H](Nc1cc(Cl)c2ncc(C#N)c(NC3CCCCC3)c2c1)c1cn(C2(C(F)(F)F)CC2)nn1 ?
no

Queued: COc1cc(N[C@H](c2cn(C3(C#N)CC3)nn2)c2ccc(F)nc2C)cc2c(NCC(C)(C)C)c(C#N)cnc12
no

// next record CC(C)(C)CNc1c(C#N)cnc2c(Cl)cc(N[C@@H](c3ccc4cccnc4c3)c3cn(C4(C(F)(F)F)CC4)nn3)cc12
no

Try CCn1ccc2c([C@H](Nc3cc(Cl)c4ncc(C#N)c(NCC(C)(C)C)c4c3)c3cn(C45CC(C4)C5)nn3)cccc2c1=O next.
yes

Okay, and CC(C)(C)CNc1c(C#N)cnc2c(Cl)cc(N[C@H](c3cn(C4CC4)nn3)c3cccc4scnc34)cc12 ?
no

====

Tested on: TNFα
protocol_notes: Cot Monocyte TNFα Cell Based Assay
cond: Homo sapiens, Monocyte, read-out: EC50 TNF, LPS-stimulated human monocytes, TNFα
property_name: EC50

INSERT INTO measurements (molecule, measured) VALUES
  ('CCn1ccc2c([C@H](Nc3cc(Cl)c4ncc(C#N)c(NCC(C)(C)C)c4c3)c3cn(C45CC(C4)C5)nn3)cccc2c1=O', '28 nM');

Query (molecule): Cc1nc(F)ccc1[C@H](Nc1cc(Cl)c2ncc(C#N)c(NCC(C)(C)C(F)(F)F)c2c1)c1cn(C2(C3CC3)CC2)nn1 ; field requested: EC50
40 nM

Same for Cc1ncoc1[C@H](Nc1cc(Cl)c2ncc(C#N)c(NCC(C)(C)C)c2c1)c1cn(C2(C(F)F)CC2)nn1
1000 nM

Here is the next molecule: CCc1nc(F)ccc1[C@H](Nc1cc(C#N)c2ncc(C#N)c(NCC(C)(C)C)c2c1)c1cn(C2(C(F)(F)F)CC2)nn1
198 nM

And for CC(C)n1cc([C@@H](Nc2cc(Cl)c3ncc(C#N)c(Nc4ccc(F)c(Cl)c4)c3c2)c2csc(N3CCOCC3)n2)nn1 ?
414 nM

Try this molecule next: Cc1nc(F)ccc1[C@H](Nc1cc(C#N)c2ncc(C#N)c(NCC3(C(F)F)CC3)c2c1)c1cn(C2(C(F)(F)F)CC2)nn1
858 nM

Please answer likewise for Cc1ncsc1[C@H](Nc1cc(Cl)c2ncc(C#N)c(Nc3ccc(Cl)c(Cl)c3F)c2c1)c1cn(C2COC2)nn1
264 nM

Same lookup for [2H]C(Nc1cc(Cl)c2ncc(C#N)c(N[C@H](CC)c3ccccc3)c2c1)(c1cn(C2CC2)nn1)c1cc(C#N)cs1 (stereo partly shown) , please.
193 nM

Also, Cn1cc2cccc([C@H](Nc3cc(C#N)c4ncc(C#N)c(NCC(C)(C)C)c4c3)c3cn(C4(C(F)(F)F)CC4)nn3)c2n1 please.
751 nM

Now the molecule Cc1ncoc1[C@H](Nc1cc(C#N)c2ncc(C#N)c(NCC(C)(C)C)c2c1)c1cn(C2(C(F)F)CC2)nn1
806 nM

Okay, and Cc1nc(F)ccc1[C@H](Nc1cc(Cl)c2ncc(C#N)c(NCC(C)(C)C(F)(F)F)c2c1)c1cn(C23CC(C2)C3)nn1 ?
24 nM

CC(C)(C)N1CCC(n2cc([C@@H](Nc3cc(Cl)c4ncc(C#N)c(Nc5ccc(F)c(Cl)c5)c4c3)c3ccc4sccc4c3)nn2)CC1 ?
2650 nM

Here is the next molecule: CC(C)(C)N1CCC(n2cc([C@@H](Nc3cc(Cl)c4ncc(C#N)c(Nc5ccc(F)c(Cl)c5)c4c3)c3cccc4c3CCN4)nn2)CC1
131 nM
